# credit: patent US7989466B2

Tested on: chemokine-induced THP-1 migration
Assay protocol: THP-1 trans-well migration assay, panel of chemokines (MCP-1, MIP1α, IL-8, SDF1α)
Format: cell-based, human
Condition context: THP-1 migration; read-out: ED50 range, migration by all chemokines tested
pEC50: −log10 of the molar value.

>  <Substance>
KQKWVQ [Peptide 3[7-12]]

>  <pEC50>
5.05 to 5.15

$$$$

====

Target: short splice variant D2 dopamine receptor (Homo sapiens)
Sequence (P14416 1-414 isoform P14416-2): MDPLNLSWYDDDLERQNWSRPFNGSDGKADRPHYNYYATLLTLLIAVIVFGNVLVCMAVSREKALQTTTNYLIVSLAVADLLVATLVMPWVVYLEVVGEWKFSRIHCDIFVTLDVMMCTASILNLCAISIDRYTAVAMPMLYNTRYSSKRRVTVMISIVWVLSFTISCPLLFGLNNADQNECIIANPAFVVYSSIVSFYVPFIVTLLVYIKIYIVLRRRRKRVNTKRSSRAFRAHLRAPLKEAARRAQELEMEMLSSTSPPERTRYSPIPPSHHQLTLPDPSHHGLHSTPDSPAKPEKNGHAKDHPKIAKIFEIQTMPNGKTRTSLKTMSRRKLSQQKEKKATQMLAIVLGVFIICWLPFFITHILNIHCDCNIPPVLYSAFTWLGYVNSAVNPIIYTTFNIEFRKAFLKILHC
Assay protocol: Dopamine receptor membrane binding (3H-Spiperone)
Condition context: 100 μM highest concentration tested; read-out: ED50 for competition of spiperone binding to short splice variant D2 dopamine receptor

>  <Compound>
O=C1CCC(N2C(=O)c3ccccc3C2=O)C(=O)N1 (stereo not shown) [Thalidomide, reference compound]

>  <IC50>
> 100 µM

$$$$

====

Tested on: MCP-1 induced THP-1 migration
Assay protocol: THP-1 trans-well migration assay, MCP-1 as chemoattractant
Type: cell-based, human
Condition context: agent with the cells in the upper compartment; n.s. = no statistically significant inhibition (p > 0.05); listed as Leu4Ile11peptide 3(1-12)[MCP-1]; read-out: ED50 versus MCP-1, inhibition of THP-1 migration

>  <Query sequence>
EICLDPKQKWIQ [Leu4Ile11peptide 3]

>  <EC50>
~1000 nM

$$$$

====

Test system: chemokine-induced THP-1 migration
Assay protocol: THP-1 trans-well migration assay, panel of chemokines (MCP-1, MIP1α, IL-8, SDF1α)
Assay type: cell-based, human
Condition context: average inhibitory ED50 for inhibition of THP-1 migration induced by each of the chemokines; read-out: AVERAGE ED50
pEC50: −log10 of the molar value. Positions of bridges follow the written chain, without caps; N, C: chain ends. No end group written: not given here.
Label scheme for pEC50: lower than 5 is no, 5 and above is yes.

>  <Substance>
EICADPKQKWIQ [Ile11peptide 3]

>  <Assigned class>
yes

$$$$
>  <Substance>
EICADP [Peptide 3[1-6]]

>  <Assigned class>
no

$$$$
>  <Substance>
-CQVWKQKPDAC-- (disulfide 1-11; not fully specified (some residues, C-terminus); printed as -CQVWKQKPDAC--; also: CRD: cyclic reverse-D derivative, D-residues shown in italics, not given here) [CRD-Cys13pep3[3-12]]

>  <Assigned class>
yes

$$$$
>  <Substance>
EICADPSQKWVQ [Ser7peptide 3]

>  <Assigned class>
yes

$$$$
>  <Substance>
EICLDPKQKWVQ [Leu4peptide 3]

>  <Assigned class>
yes

$$$$
>  <Substance>
EICADPSEEWVQ [Ser7Glu8Glu9pep3]

>  <Assigned class>
yes

$$$$

====

Tested on: MCP-1 induced THP-1 migration
Assay protocol: THP-1 trans-well migration assay, MCP-1 as chemoattractant
Type: cell-based, human
Condition context: ns = not significantly different from control
No end group written: not given here.
Quantity: MCP-1 ED-50

>  <Substance>
HLKILNTPNCALQIV [Pep2[SDF1]]

>  <Quantity>
MCP-1 ED-50

>  <Reported>
10 =M

$$$$
>  <Substance>
CSYRRITSSKSPKEAVC

>  <Quantity>
MCP-1 ED-50

>  <Reported>
ns

$$$$
>  <Substance>
DYFETSSQC

>  <Quantity>
MCP-1 ED-50

>  <Reported>
ns

$$$$
>  <Substance>
SYRRITSSKCPKEAV [peptide 2(1-15)[MCP-1]]

>  <Quantity>
MCP-1 ED-50

>  <Reported>
ns

$$$$
>  <Substance>
CSKPGV

>  <Quantity>
MCP-1 ED-50

>  <Reported>
ns

$$$$
